- system.name: human recombinant H-PGDS (Homo sapiens)
- test.method.notes: Fluorescence intensity h-PGDS TBA enzyme assay (PGH2 depletion, MDA/TBA fluorescence)
- Format: biochemical
- experimental.setup: 1:175,000 human recombinant H-PGDS, 42 second reaction, 3-fold serial dilutions, highest concentration typically 1 μM
readout.kind: pIC50
Interpret pIC50 as the negative base-10 log of the concentration measured in mol/L.

Look up pIC50: N[C@H]1CC[C@@H](NC(=O)c2ccc(-c3cccc(F)c3)nc2)CC1
7.01

# iterate: O=C(N[C@H]1CC[C@H](O)CC1)c1ccc(-c2cccc(F)c2)nc1
8.64

Proceed to CS(=O)(=O)N[C@@H]1CCC[C@H](NC(=O)c2ccc(-c3cccc(F)c3)nc2)C1 (relative stereo)
7.09

---

- system.name: human recombinant H-PGDS (Homo sapiens, UniProt O60760)
- Sequence (O60760 whole entry): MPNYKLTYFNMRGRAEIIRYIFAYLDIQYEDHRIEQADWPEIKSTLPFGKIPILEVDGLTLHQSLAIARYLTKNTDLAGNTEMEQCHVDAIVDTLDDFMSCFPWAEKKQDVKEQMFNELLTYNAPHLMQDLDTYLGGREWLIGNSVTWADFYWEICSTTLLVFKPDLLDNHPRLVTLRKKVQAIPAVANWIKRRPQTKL
- test.method.notes: Slightly modified fluorescence intensity h-PGDS TBA enzyme assay (1:40,000 enzyme, 40 second reaction, 1/2 log dilutions, top concentration typically 10 μM)
- Format: biochemical
- experimental.setup: slightly modified assay: 1:40,000 human recombinant H-PGDS
- Description: Fluoresecence Intensity h-PGDSTBA Enzyme Assay Prostaglandin D Synthase (PGDS) converts the substrate prostaglandin H2 (PGH2) to prostaglandin D2. The depletion of PGH2 was measured via an Fe(II) reduction of the remaining PGH2 to malondialdehyde (MDA) and 12-HHT. […]
readout.kind: pIC50
Scale note: pIC50 = -log10(concentration in M).

- O=C(NC1CCC(NC2CCOC2)CC1)c1ccc(-c2cccc(F)c2)nc1 (single isomer, unassigned) [Example 57]: 7.49
- O=C(NC1CCC(N2CCC(O)CC2)CC1)c1ccc(-c2cccc(F)c2)nc1 (stereo not shown) [Example 62]: 6.86
- CN1CCN(C(=O)[C@H]2CC[C@@H](NC(=O)c3ccc(-c4cccc(F)c4)nc3)CC2)CC1 [Example 72]: 7.63

Attention now shifts to the item below.
Recall the recorded pIC50 for O=C(N[C@H]1CC[C@@H](C(=O)N2CCC(O)CC2)CC1)c1ccc(-c2cccc(F)c2)nc1 [Example 68] with human recombinant H-PGDS (Homo sapiens, UniProt O60760) and state it.
7.88

---

- system.name: human recombinant H-PGDS (Homo sapiens)
- test.method.notes: Fluorescence intensity h-PGDS TBA enzyme assay (PGH2 depletion, MDA/TBA fluorescence)
- Assay type: biochemical
- experimental.setup: 1:175,000 human recombinant H-PGDS, 42 second reaction, 3-fold serial dilutions, highest concentration typically 1 μM
Lab note - cut at 0.08 µM for IC50: Yes if strictly below, No if not.

- COC[C@H]1CCC[C@H]1NC(=O)c1ccc(-c2cccc(F)c2)nc1: No

Hello, I'm reviewing records and need to know if IC50 of CN(C)CCNC(=O)[C@H]1CC[C@@H](NC(=O)c2ccc(-c3cccc(F)c3)nc2)C1 is below 0.08 µM. Could you check?
Yes

// next record CN1CCN(CC(=O)N[C@@H]2CCC[C@H](NC(=O)c3ccc(-c4cccc(F)c4)nc3)C2)CC1 (relative stereo)
Yes

Queued: Cc1nnc(C[C@H]2CC[C@@H](NC(=O)c3ccc(-c4cccc(F)c4)nc3)CC2)o1
Yes

Then this molecule: COC1(C(C)O)CCC(NC(=O)c2ccc(-c3cccc(F)c3)nc2)CC1 (centres unmarked)
Yes

The measurements presented in this section are drawn from patent US20100173888A1.
